All values here come from patent US11279681B2.

biological target: HDAC6 (Homo sapiens); assay: In vitro histone deacetylase assay: enzymatic HDAC6 electrophoretic mobility shift assay; conditions: full length human recombinant HDAC6, 1 nM enzyme, 2 μM peptide substrate RHKK(Ac)-NH2, 25° C.; read-out: Inhibitory Concentration (IC50) Values for Representative Compounds against HDAC6, Activity Range
Sequence (Q9UBN7 whole entry): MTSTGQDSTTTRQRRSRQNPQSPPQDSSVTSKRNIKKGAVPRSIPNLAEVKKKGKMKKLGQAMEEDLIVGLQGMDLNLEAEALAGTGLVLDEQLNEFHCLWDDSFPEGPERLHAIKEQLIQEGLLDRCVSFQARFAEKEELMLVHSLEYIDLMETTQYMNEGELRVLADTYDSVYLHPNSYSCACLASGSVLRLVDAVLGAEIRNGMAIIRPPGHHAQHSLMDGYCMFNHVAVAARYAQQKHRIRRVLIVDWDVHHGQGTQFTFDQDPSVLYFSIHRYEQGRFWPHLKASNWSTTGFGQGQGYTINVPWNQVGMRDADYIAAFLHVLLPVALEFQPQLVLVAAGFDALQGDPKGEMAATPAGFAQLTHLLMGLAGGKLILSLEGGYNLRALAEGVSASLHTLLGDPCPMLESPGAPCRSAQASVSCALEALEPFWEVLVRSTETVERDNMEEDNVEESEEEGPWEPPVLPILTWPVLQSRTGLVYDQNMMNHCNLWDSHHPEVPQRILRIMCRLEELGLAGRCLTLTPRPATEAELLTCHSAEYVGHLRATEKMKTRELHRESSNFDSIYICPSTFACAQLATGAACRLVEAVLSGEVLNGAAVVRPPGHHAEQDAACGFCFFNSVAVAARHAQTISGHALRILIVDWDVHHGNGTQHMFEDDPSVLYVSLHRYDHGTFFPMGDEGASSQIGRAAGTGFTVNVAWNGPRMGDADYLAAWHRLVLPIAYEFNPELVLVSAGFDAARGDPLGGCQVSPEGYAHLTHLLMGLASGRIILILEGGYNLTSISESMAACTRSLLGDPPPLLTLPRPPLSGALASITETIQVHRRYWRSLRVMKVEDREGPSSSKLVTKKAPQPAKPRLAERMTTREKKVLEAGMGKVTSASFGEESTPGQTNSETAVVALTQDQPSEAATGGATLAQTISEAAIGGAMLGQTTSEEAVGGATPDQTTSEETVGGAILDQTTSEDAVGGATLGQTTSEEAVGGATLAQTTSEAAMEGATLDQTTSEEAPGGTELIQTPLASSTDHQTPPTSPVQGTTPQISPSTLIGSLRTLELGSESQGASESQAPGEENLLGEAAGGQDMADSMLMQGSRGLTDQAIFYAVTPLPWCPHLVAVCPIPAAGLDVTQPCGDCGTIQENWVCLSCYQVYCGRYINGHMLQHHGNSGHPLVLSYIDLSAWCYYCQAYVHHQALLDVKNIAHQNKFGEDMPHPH
property.measured: IC50

1) N#Cc1ccc(N2CCOc3cc(C(=O)NO)ccc3C2)cc1C(F)(F)F
100 to 500 nM
2) COC[C@@H]1CN(C(=O)Nc2ccc(OC)cc2)Cc2ccc(C(=O)NO)cc2O1
100 to 500 nM
3) O=C1CN(Cc2ccc(-n3cccc3)cc2)Cc2cc(C(=O)NO)ccc2N1
≤ 100 nM
4) O=C1CN(Cc2cncnc2)Cc2cc(C(=O)NO)ccc2N1
> 500 nM
5) O=C(NO)c1ccc2c(c1)OCCN(Cc1nc3ccccc3[nH]1)C2
≤ 100 nM
6) C[C@H]1COc2cc(C(=O)NO)ccc2CN1C(=O)N1CCOc2ccccc21
≤ 100 nM
7) O=C(NO)c1ccc2c(c1)OCCN(c1ccccn1)C2
100 to 500 nM
8) O=C(NO)c1ccc2c(c1)OCCN(C(=O)N1CCCC1)C2
≤ 100 nM
9) C[C@H]1COc2cc(C(=O)NO)ccc2CN1CC1CCC1
≤ 100 nM
10) Cn1ccnc1CN1CC(=O)Nc2ccc(C(=O)NO)cc2C1
100 to 500 nM
11) COC[C@@H]1COc2cc(C(=O)NO)ccc2CN1C
≤ 100 nM
12) O=C(NO)c1ccc2c(c1)OCCN(c1nc3ccccc3o1)C2
≤ 100 nM
